- Tested on: OVCAR-5 complex spheroids, viability
- experimental-protocol: Anticancer human tumor OVCAR-5 cell line growth inhibition;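 note: spheroids exposed to agents for seven days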
- condition: curve of first compound; second compound 0.316 µM
pIC50: −log10 of the molar value.
Please enter true (1) where pIC50 is greater than or equal to 7, and false (0) where it is lower.

* CC(C)CC(NC(=O)CNC(=O)c1cc(Cl)ccc1Cl)B1OC(=O)CC(CC(=O)O)(C(=O)O)O1 (centres undefined) + NC1CCC(NC2CC2c2ccccc2)CC1 | false (0)
* CCc1c2c(nc3ccc(O)cc13)-c1cc3c(c(=O)n1C2)COC(=O)[C@]3(O)CC + NC1CCC(NC2CC2c2ccccc2)CC1 | true (1)
* CCc1c2c(nc3ccc(O)cc13)-c1cc3c(c(=O)n1C2)COC(=O)[C@]3(O)CC + NC1CC1c1ccc(-c2cccc(O)c2)cc1 | true (1)
* Nc1ccccc1NC(=O)c1ccc(CNC(=O)OCc2cccnc2)cc1 + NC1CC1c1ccc(-c2cccc(O)c2)cc1 | false (0)
* COc1ccc([C@@H](O)c2cc(-c3ncnc4cc(N5CCOCC5)ccc34)c(F)cc2Cl)nn1 + NC1CCC(NC2CC2c2ccccc2)CC1 | false (0)
* O=C(c1cc(Cc2n[nH]c(=O)c3ccccc23)ccc1F)N1CCN(C(=O)C2CC2)CC1 + NC1CCC(NC2CC2c2ccccc2)CC1 | false (0)
* CC1(C)CCC(CN2CCN(c3ccc(C(=O)NS(=O)(=O)c4ccc(NCC5CCOCC5)c([N+](=O)[O-])c4)c(Oc4cnc5[nH]ccc5c4)c3)CC2)=C(c2ccc(Cl)cc2)C1 + NC1CC1c1ccc(-c2cccc(O)c2)cc1 | false (0)
* CC(C)CC(NC(=O)CNC(=O)c1cc(Cl)ccc1Cl)B1OC(=O)CC(CC(=O)O)(C(=O)O)O1 (centres undefined) + NC1CC1c1ccc(-c2cccc(O)c2)cc1 | false (0)
* CC(C)CC(NC(=O)C(Cc1ccccc1)NC(=O)c1cnccn1)B(O)O (centres undefined) + NC1CCC(NC2CC2c2ccccc2)CC1 | true (1)
* CC[C@@]1(O)C(=O)OCc2c1cc1n(c2=O)Cc2cc3c(CN(C)C)c(O)ccc3nc2-1 + NC1CCC(NC2CC2c2ccccc2)CC1 | true (1)
* O=C(C=Cc1cccc(S(=O)(=O)Nc2ccccc2)c1)NO + NC1CCC(NC2CC2c2ccccc2)CC1 | false (0)
* Nc1ncn(C2CC(O)C(CO)S2)c(=O)n1 (centres undefined) + NC1CCC(NC2CC2c2ccccc2)CC1 | false (0)

* * *

- Tested on: OVCAR-5 complex spheroids, viability
- experimental-protocol: Anticancer human tumor OVCAR-5 cell line growth inhibition;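 note: spheroids exposed to agents for seven days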;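 for viability, T/C: 100% = DMSO vehicle control wells viability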
- condition: second compound 10 µM; first compound 0.3 µM; stronger effect = lower value
viability, T/C overview
outcome-measure: viability, T/C (%)

• Nc1ccccc1NC(=O)c1ccc(CNC(=O)OCc2cccnc2)cc1 + NC1CC1c1ccc(-c2cccc(O)c2)cc1 = 32.1
• CCN(c1cc(-c2ccc(CN3CCOCC3)cc2)cc(C(=O)NCc2c(C)cc(C)[nH]c2=O)c1C)C1CCOCC1 + NC1CCC(NC2CC2c2ccccc2)CC1 = 79.9
• NS(=O)(=O)OCC1CC(n2ccc3c(NC4CCc5ccccc54)ncnc32)CC1O (stereo not drawn) + NC1CC1c1ccc(-c2cccc(O)c2)cc1 = 16.2

* * *

- Tested on: OVCAR-5 complex spheroids, viability
- experimental-protocol: Anticancer human tumor OVCAR-5 cell line growth inhibition; active = viability on the fitted dose curve at most 10% of control; inactive = the rest;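 note: spheroids exposed to agents for seven days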
- condition: second compound 0.1 µM; first compound 0.949 µM
Possible outcomes: true (1) = active, false (0) = inactive

• NS(=O)(=O)OCC1CC(n2ccc3c(NC4CCc5ccccc54)ncnc32)CC1O (stereo not drawn) + NC1CCC(NC2CC2c2ccccc2)CC1 = false (0)
• Nc1ccccc1NC(=O)c1ccc(CNC(=O)OCc2cccnc2)cc1 + NC1CC1c1ccc(-c2cccc(O)c2)cc1 = false (0)
• NS(=O)(=O)OCC1CC(n2ccc3c(NC4CCc5ccccc54)ncnc32)CC1O (stereo not drawn) + NC1CC1c1ccc(-c2cccc(O)c2)cc1 = true (1)
